biological target: CDK4/Cyclin D1 (Homo sapiens (Human), UniProt P11802); experiment: CDK4/Cyclin D1 CHEF Assay; assay type: biochemical; settings: AQT; read-out: CDK4/CyclinD1 AQT IC50
Sequence (P11802 whole entry, species assumed): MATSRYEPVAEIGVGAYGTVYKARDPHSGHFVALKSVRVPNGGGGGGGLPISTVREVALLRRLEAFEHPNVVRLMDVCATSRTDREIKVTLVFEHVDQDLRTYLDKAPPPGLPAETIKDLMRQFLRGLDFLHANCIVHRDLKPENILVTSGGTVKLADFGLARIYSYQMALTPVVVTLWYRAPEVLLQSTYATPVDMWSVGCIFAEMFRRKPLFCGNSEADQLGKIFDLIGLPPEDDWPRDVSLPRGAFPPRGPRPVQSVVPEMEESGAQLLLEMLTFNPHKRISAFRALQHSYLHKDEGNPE
Sequence (P24385 whole entry partner, species assumed): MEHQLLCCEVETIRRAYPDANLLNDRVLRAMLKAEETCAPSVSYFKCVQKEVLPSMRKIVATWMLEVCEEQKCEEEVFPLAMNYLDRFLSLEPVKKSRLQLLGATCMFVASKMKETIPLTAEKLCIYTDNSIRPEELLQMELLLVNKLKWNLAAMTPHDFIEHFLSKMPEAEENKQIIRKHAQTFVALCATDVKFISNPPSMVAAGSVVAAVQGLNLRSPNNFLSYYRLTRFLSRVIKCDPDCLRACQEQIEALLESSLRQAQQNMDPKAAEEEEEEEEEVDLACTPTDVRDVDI
Give IC50 for every item shown.

Record IC50 per entry; entries follow.
1. Cc1cc2cnc(Nc3cc4c(cc3F)CN(S(C)(=O)=O)C4)nc2c(N2CC3(CNC3)C2)n1 [Compound 37]
2. Cc1cc2cnc(NC3CCN(S(=O)(=O)c4cnn(C)c4)CC3)nc2c(N2CC(F)(F)C3(CNC3)C2)n1 [Compound 89]
3. Cc1cc2cnc(Nc3ccc4c(c3)CN(C)C4)nc2c(N2CC3(C2)CN(C2CC2)C3)n1 [Compound 44]
4. Cc1cc2cnc(NC3CCN(S(=O)(=O)C4CC4)CC3)nc2c(N2CC(N3CC(F)C3)C2)n1 [Compound 72]
5. COC1CC2(C1)CN(c1nc(C3CC3)cc3cnc(NC4CCN(S(C)(=O)=O)CC4)nc13)C2 [Compound 75]
6. Cc1cc2cnc(NC3CCN(S(C)(=O)=O)CC3)nc2c(N2CC3(CC(O)C3)C2)n1 [Compound 73]

Response:
1: > 2000 nM; 2: < 200 nM; 3: 200 to 500 nM; 4: 200 to 500 nM; 5: < 200 nM; 6: < 200 nM

Entry Cc1cc2cnc(NC3CCN(S(C)(=O)=O)CC3)nc2c(C2CC(C)(CO)C2)n1 (stereo not shown) [Compound 69] ; IC50 = < 200 nM

---

target: CDK6/Cyclin D3 (Homo sapiens (Human)); assay: CDK6/Cyclin D3 ADP-Glo Kinase Assay; conditions: read-out: CDK6/CyclinD3 IC50
pIC50: −log10 of the molar value.
Give pIC50 for every item shown.

Entry `CS(=O)(=O)N1CCC(Nc2ncc3ccnc(N4CCC5(CCOCC5)C4)c3n2)CC1` ; pIC50 = > 6.70

Entry `Cc1cc2cnc(NC3CCN(S(C)(=O)=O)CC3)nc2c(N2CC3(C2)CC(C)(O)C3)n1` ; pIC50 = 6.30 to 6.70

Entry `CS(=O)(=O)N1CCC(Nc2ncc3ccnc(N4CC5(CCCC5)c5c(F)cccc54)c3n2)CC1` ; pIC50 = < 5.70

Entry `CCN1CC2(C1)CN(c1ccc(Nc3ncc4ccnc(N5CCC6(C5)CC(F)(F)C6)c4n3)nc1)C2` ; pIC50 = > 6.70

Record pIC50 per entry; entries follow.
1. Cc1cc2cnc(NC3CCN(S(=O)(=O)C4CC4)CC3)nc2c(N2CC3(CNC3)C2)n1
2. Cc1cc2cnc(NC3CCN(S(C)(=O)=O)CC3)nc2c(N2CC3(CN(C)C[C@@H]3F)C2)n1
3. Cc1cc2cnc(Nc3ccc4c(c3)CN(C3CC3)C4)nc2c(N2CC3(CCNC3)C2)n1
4. Cc1cc2cnc(N[C@H]3CC[C@H](CN(C)C)CC3)nc2c(N2CCC3(C2)CC3(F)F)n1 (some centres unmarked)

Response:
1. > 6.70
2. > 6.70
3. > 6.70
4. > 6.70

---

Give pIC50 for every item shown.
molecular target: CDK2/Cyclin E1 full length (Homo sapiens (Human), UniProt P24941); test: CDK2/Cyclin E1 Full length ADP-Glo Kinase Assay; settings: read-out: CDK2/CyclinE1 IC50
pIC50: −log10 of the molar value.

Known pIC50 results, listed for orientation:
Test item Cc1cc2cnc(Nc3cnn(C4CC5(C4)CN(C)C5)c3)nc2c(N2CCC3(C2)CC3(F)F)n1 (centres unmarked) ; CDK2/Cyclin E1 full length (Homo sapiens (Human), UniProt P24941); reported pIC50 was 6.30 to 6.70

Test item `O=S(=O)(C1CC1)N1CCC(Nc2ncc3cc(C(F)F)nc(N4CC5(CCNC5)C4)c3n2)CC1` ; CDK2/Cyclin E1 full length (Homo sapiens (Human), UniProt P24941); reported pIC50 was > 6.70

Test item `Cc1cc2cnc(NC3CCN(S(C)(=O)=O)CC3)nc2c(N2CC3(CN(C)C[C@H]3F)C2)n1` ; CDK2/Cyclin E1 full length (Homo sapiens (Human), UniProt P24941); reported pIC50 was > 6.70

Test item `CS(=O)(=O)N1CCC(Nc2ncc3ccnc(N4C[C@H]5c6ccccc6S(=O)(=O)[C@H]5C4)c3n2)CC1` ; CDK2/Cyclin E1 full length (Homo sapiens (Human), UniProt P24941); reported pIC50 was > 6.70

Test item `Cc1cc2cnc(NC3CCN(S(C)(=O)=O)CC3)nc2c(N2CC3(C2)CN(C2CC2)C3)n1` ; CDK2/Cyclin E1 full length (Homo sapiens (Human), UniProt P24941); reported pIC50 was > 6.70

Test item `Cc1cc2cnc(Nc3ccc(N4CC5(CN(C)C5)C4)cc3)nc2c(N2CCC3(CCOCC3)C2)n1` ; CDK2/Cyclin E1 full length (Homo sapiens (Human), UniProt P24941); reported pIC50 was 6.30 to 6.70

Test item Cc1cc2cnc(NC3CCN(S(=O)(=O)C4(C)CC4)CC3)nc2c(C2CC(C)(O)C2)n1 (centres unmarked) ; CDK2/Cyclin E1 full length (Homo sapiens (Human), UniProt P24941); reported pIC50 was 6.30 to 6.70

Test item `Cc1cc2cnc(Nc3cnn(C4CC5(C4)CN(C)C5)c3)nc2c(N2CC3(C2)CN(S(C)(=O)=O)C3)n1` ; CDK2/Cyclin E1 full length (Homo sapiens (Human), UniProt P24941); reported pIC50 was 6.30 to 6.70

Test item `Cc1cc2cnc(NC3CCN(S(C)(=O)=O)CC3)nc2c(N2CC3(CN(C)C[C@@H]3F)C2)n1` ; CDK2/Cyclin E1 full length (Homo sapiens (Human), UniProt P24941); reported pIC50 was > 6.70

Test item `Cc1cc2cnc(Nc3ccc(N4CC5(CN(C)C5)C4)cc3)nc2c(N2CC3(C2)CS(=O)(=O)C3)n1` ; CDK2/Cyclin E1 full length (Homo sapiens (Human), UniProt P24941); reported pIC50 was 6.30 to 6.70

Record pIC50 per entry; entries follow.
1. CN1C[C@@H]2[C@H](C1)[C@H]2Nc1ncc2ccnc(N3CCC4(C3)CC4(F)F)c2n1 (some centres unmarked)
2. Cc1cc2cnc(Nc3cc4c(cc3F)CN(S(C)(=O)=O)C4)nc2c(N2CC3(CNC3)C2)n1
3. Cc1cc2cnc(Nc3ccc4c(c3)CN(C3CN(S(C)(=O)=O)C3)C4)nc2c(N2CC3(CN(C)C3)C2)n1
4. CCN1CC2(C1)CN(c1ccc(Nc3ncc4ccnc(N5CCC6(C5)CC6(F)F)c4n3)nc1)C2 (centres unmarked)

Response:
1: 6.30 to 6.70; 2: 6.30 to 6.70; 3: 6.30 to 6.70; 4: 6.30 to 6.70

---

target: CDK6/Cyclin D3 (Homo sapiens (Human), UniProt Q00534); assay: CDK6/Cyclin D3 ADP-Glo Kinase Assay; type: biochemical; conditions: read-out: CDK6/CyclinD3 IC50
Sequence (Q00534 whole entry): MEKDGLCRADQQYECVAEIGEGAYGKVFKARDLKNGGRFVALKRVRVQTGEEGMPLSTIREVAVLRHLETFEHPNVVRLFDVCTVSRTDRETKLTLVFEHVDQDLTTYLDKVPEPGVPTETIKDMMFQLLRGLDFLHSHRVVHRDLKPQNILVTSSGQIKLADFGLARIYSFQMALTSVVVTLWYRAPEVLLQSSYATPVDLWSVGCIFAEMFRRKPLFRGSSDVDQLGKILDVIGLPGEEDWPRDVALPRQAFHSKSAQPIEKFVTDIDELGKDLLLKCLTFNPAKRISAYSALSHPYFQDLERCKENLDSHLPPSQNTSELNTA
Sequence (P30281 whole entry partner): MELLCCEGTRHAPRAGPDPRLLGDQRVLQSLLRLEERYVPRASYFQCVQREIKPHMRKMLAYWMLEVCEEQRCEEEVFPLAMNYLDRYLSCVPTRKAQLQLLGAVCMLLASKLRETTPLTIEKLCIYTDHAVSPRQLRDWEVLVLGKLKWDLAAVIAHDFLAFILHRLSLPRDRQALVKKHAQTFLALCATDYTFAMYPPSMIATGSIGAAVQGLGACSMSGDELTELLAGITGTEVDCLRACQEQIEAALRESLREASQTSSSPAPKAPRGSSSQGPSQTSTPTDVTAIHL
result.type: IC50

Known IC50 results, listed for orientation:
Entry COCCN1CC2(C1)CN(c1nc(C3CC3)cc3cnc(NC4CCN(S(=O)(=O)CC5CCC5)CC4)nc13)C2 [Compound 64] ; IC50 = 200 to 500 nM

Entry O=S(=O)(CC1CCC1)N1CCC(Nc2ncc3cc(C(F)F)nc(N4CC5(CCNC5)C4)c3n2)CC1 [Compound 55] ; IC50 = < 200 nM

Entry CN1CCn2nc(Nc3ncc4ccnc(N5CCC6(C5)CC6(F)F)c4n3)cc2C1 (centres unmarked) [Compound 10] ; IC50 = < 200 nM

Record IC50 per entry; entries follow.
1. CN1Cc2ccc(Nc3ncc4ccnc(N5CCC6(CCN(S(C)(=O)=O)C6)C5)c4n3)cc2C1 (centres unmarked) [Compound 23]
2. Cc1cc2cnc(NC3CCN(S(=O)(=O)C4CC4)CC3)nc2c(N2CCC(OC(F)F)C2)n1 (centres unmarked) [Compound 58]
3. Cc1cc2cnc(Nc3cnn(C4CC5(C4)CN(C)C5)c3)nc2c(N2CCC3(C2)CC3(F)F)n1 (centres unmarked) [Compound 33]
4. CCS(=O)(=O)N1CCC(Nc2ncc3cc(C)nc(N4CC(F)(F)C5(CNC5)C4)c3n2)CC1 [Compound 95]
5. Cc1cc2cnc(Nc3cnn(CC4(N(C)C)CC4)c3)nc2c(N2CCC(C#N)(C3CC3)C2)n1 (centres unmarked) [Compound 38]

Response:
< 200 nM
< 200 nM
< 200 nM
< 200 nM
> 2000 nM

---

biological target: CDK6/Cyclin D3 (Homo sapiens (Human)); assay: CDK6/Cyclin D3 ADP-Glo Kinase Assay; settings: read-out: CDK6/CyclinD3 IC50
result.type: IC50

Record IC50 per entry; entries follow.
1. CS(=O)(=O)N1CCC(Nc2ncc3ccnc(N4CCN(C5CC5)CC4)c3n2)CC1 [Compound 1]
2. Cc1cc2cnc(NC3CCN(S(=O)(=O)C4CC4)CC3)nc2c(N2CC3(CCNC3)C2)n1 [Compound 25]
3. Cc1cc2cnc(NC3CCN(S(C)(=O)=O)CC3)nc2c(C2CC(O)(C(F)F)C2)n1 (stereo not shown) [Compound 93]
4. Cc1cc2cnc(Nc3ccc(CS(C)(=O)=O)cc3)nc2c(N2CC(O)(C3CC3)C2)n1 [Compound 83]

Response:
["200 to 500 nM", "< 200 nM", "< 200 nM", "< 200 nM"]

Record IC50 per entry; entries follow.
1. COC1CC2(C1)CN(c1nc(C)cc3cnc(NC4CCN(S(=O)(=O)C5CC5)CC4)nc13)C2 [Compound 71]
2. Cc1cc2cnc(NC3CCN(S(=O)(=O)C4CC4)CC3)nc2c(N2CC3(C2)CC(C)(O)C3)n1 [Compound 78]
3. FC(F)c1cc2cnc(Nc3ccc4c(c3)CN(C3CC3)C4)nc2c(N2CC3(CCNC3)C2)n1 [Compound 50]
4. Cc1cc2cnc(NC3CCN(S(C)(=O)=O)CC3)nc2c(N2CCC3(C2)CC(F)(F)C3)n1 [Compound 53]
5. CS(=O)(=O)N1CCC(Nc2ncc3cc(C(F)F)nc(N4CC5(CNCCC5(F)F)C4)c3n2)CC1 [Compound 65]
6. Cc1cc2cnc(NC3CCN(S(=O)(=O)C4(C)CC4)CC3)nc2c(C2CC(C)(O)C2)n1 (stereo not shown) [Compound 63]

Response:
["< 200 nM", "200 to 500 nM", "< 200 nM", "< 200 nM", "< 200 nM", "> 2000 nM"]

Record IC50 per entry; entries follow.
1. Cc1cc2cnc(NC3CCN(S(=O)(=O)c4cnn(C)c4)CC3)nc2c(N2CC3(CCNCC3(F)F)C2)n1 [Compound 87]
2. Cc1cc2cnc(NC3CCN(S(C)(=O)=O)CC3)nc2c(N2CC(O)(C(F)F)C2)n1 [Compound 91]

Response:
1: < 200 nM; 2: < 200 nM
